Data provenance is patent US20050226876A1.

Target: T1, Recombinant P-selectin (R&D Systems) (human, UniProt P16109 42-771)
T1 construct: extracellular domain; also called recombinant human P-selectin; recombinant truncated form of P-selectin
T1 sequence (looked up): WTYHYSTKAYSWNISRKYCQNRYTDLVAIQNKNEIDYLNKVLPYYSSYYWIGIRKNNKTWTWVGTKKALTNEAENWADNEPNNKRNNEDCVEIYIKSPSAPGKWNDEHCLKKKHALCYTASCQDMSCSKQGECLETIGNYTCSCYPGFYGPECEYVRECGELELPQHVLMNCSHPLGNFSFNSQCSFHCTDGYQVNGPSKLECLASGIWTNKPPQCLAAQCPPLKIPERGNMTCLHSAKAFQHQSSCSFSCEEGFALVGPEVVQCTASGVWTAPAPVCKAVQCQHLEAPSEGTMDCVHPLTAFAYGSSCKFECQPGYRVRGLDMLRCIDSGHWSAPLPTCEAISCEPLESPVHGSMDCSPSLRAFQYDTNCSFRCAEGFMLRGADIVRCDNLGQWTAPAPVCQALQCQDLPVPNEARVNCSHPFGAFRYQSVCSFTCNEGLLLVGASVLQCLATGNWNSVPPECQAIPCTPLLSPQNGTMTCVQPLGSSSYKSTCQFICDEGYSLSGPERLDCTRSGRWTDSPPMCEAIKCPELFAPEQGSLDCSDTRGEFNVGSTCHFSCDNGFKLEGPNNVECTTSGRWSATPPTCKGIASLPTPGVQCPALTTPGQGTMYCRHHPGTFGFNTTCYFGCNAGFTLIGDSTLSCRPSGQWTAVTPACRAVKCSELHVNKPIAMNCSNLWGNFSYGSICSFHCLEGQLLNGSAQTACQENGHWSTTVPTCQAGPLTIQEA
Experiment: SPR, BIACORE 2000; antibody captured by anti-human Fcγ, recombinant P-selectin 0-50 nM injected; 1:1 Langmuir fit
measure: kon (M⁻¹ s⁻¹)
Note: unit M⁻¹ s⁻¹ is implicit; provide only the numeric part.

Provide one value: measured kon of HuMab 017 (antibody of cell line hu-Mab<P-selectin>LC 1004-017, DSM ACC2642) (antibody, V domains shown, Human monoclonal antibody; also called antibody 017) VH: QPQLVQSGAEVKKPGASVKVSCKVSGNTLTELSMHWVRQAPGKGLEWMGGFDPENGEAIYAQKFQGRVTMTADTSTDTAYMDLSSLRSEDTAVYYCATDLAGGSDFYYYGLDVWGQGTTVTVSS VL: AIQLTQSPSSLSASVGDRVTITCRASQGISSALAWYQQKPGKAPKLLIYDASSLESGVPSRFSGSGSGTDFTLTISSLQPEDFATYYCQQFNSYPYTFGQGTKLEIK
779000
